Attribution: ChEMBL document CHEMBL1275519

assay: AUC in CD1 neutropenic mouse with bacterial infection in thigh at 10 mg/kg, sc; details: plasma
metric: AUC at 10 mg/kg
Write the quantity with the unit trailing the number.

*Q* Would you kindly share the measured AUC at 10 mg/kg for `Nc1nc(/C(=N/O)C(=O)N[C@@H]2C(=O)N3C(C(=O)O)=C(/C=C4\CCN([C@@H]5CCNC5)C4=O)CS[C@H]23)ns1` ?
*A* 5850 ng·h/mL

###

assay: Half life in CD1 neutropenic mouse with bacterial infection in thigh at 40 mg/kg, sc; type: ADME, organism-based; design: dose 40 mg/kg, route subcutaneous; details: in vivo
metric: half-life (min)
Give just the number in min; leave the unit off.

*Q* Would you kindly share the measured half-life for Nc1nc(/C(=N/O)C(=O)N[C@@H]2C(=O)N3C(C(=O)O)=C(/C=C4\CCN([C@@H]5CCNC5)C4=O)CS[C@H]23)ns1 [CEFTOBIPROLE] ?
*A* 19.8

###

experiment: Cmax in CD1 neutropenic mouse with bacterial infection in thigh at 10 mg/kg, sc; conditions: in vivo
metric: Cmax (ng/mL)
Answer in ng/mL, number only, no unit symbol.

*Q* What Cmax value was documented for this compound, Nc1nc(/C(=N/O)C(=O)N[C@@H]2C(=O)N3C(C(=O)O)=C(/C=C4\CCN([C@@H]5CCNC5)C4=O)CS[C@H]23)ns1 [CEFTOBIPROLE] ?
*A* 10800

###

assay: AUC in CD1 neutropenic mouse with bacterial infection in thigh at 40 mg/kg, sc; format: ADME, organism-based; parameters: dose 40 mg/kg, route subcutaneous; details: plasma
metric: AUC (ng·h/mL)
Response body: numeric value in ng·h/mL, unit text excluded.

*Q* Need AUC, item `Nc1nc(/C(=N/O)C(=O)N[C@@H]2C(=O)N3C(C(=O)O)=C(/C=C4\CCN([C@@H]5CCNC5)C4=O)CS[C@H]23)ns1`
*A* 27800

###

test: Cmax in CD1 neutropenic mouse with bacterial infection in thigh at 160 mg/kg, sc; assay type: ADME, organism-based; set-up: dose 160 mg/kg, route subcutaneous; details: in vivo
metric: Cmax (µg/mL)
Express your answer in µg/mL, writing the number without its unit.

*Q* Recorded Cmax for Nc1nc(/C(=N/O)C(=O)N[C@@H]2C(=O)N3C(C(=O)O)=C(/C=C4\CCN([C@@H]5CCNC5)C4=O)CS[C@H]23)ns1 [CEFTOBIPROLE] , please?
*A* 144

###

assay: Half life in CD1 neutropenic mouse with bacterial infection in thigh at 160 mg/kg, sc; type: ADME, organism-based; design: dose 160 mg/kg, route subcutaneous; conditions: in vivo
metric: half-life (min)
Your answer should be a plain number; it is taken to be in min.

*Q* Name the reported half-life value associated with the compound Nc1nc(/C(=N/O)C(=O)N[C@@H]2C(=O)N3C(C(=O)O)=C(/C=C4\CCN([C@@H]5CCNC5)C4=O)CS[C@H]23)ns1 [CEFTOBIPROLE]
*A* 31.7

###

assay: AUC in CD1 neutropenic mouse with bacterial infection in thigh at 160 mg/kg, sc; format: ADME, organism-based; design: dose 160 mg/kg, route subcutaneous; conditions: plasma
metric: AUC

*Q* Name the reported AUC value associated with the compound `Nc1nc(/C(=N/O)C(=O)N[C@@H]2C(=O)N3C(C(=O)O)=C(/C=C4\CCN([C@@H]5CCNC5)C4=O)CS[C@H]23)ns1`
*A* 213 µg·h/mL
